- Species: Rattus norvegicus
- Assay text: DrugMatrix - Regimen: Daily Repeat
- Type: toxicity, organism-based, Sprague-Dawley
- Set-up: regimen Daily Repeat, gender Male, age 6-8 weeks
- Applied conditions: in vivo, po, 0 mg/kg, 72 h, tissue Blood, route oral GAVAGE, dose level Control, time 3 day, vehicle 100 % WATER
# MONOCYTE per record follows

>  <Compound>
C[C@]12C=CC(=O)C=C1CC[C@@H]1[C@@H]2[C@@H](O)C[C@@]2(C)[C@H]1CC[C@]2(O)C(=O)CO [PREDNISOLONE]

>  <MONOCYTE, %>
0.5

$$$$
>  <Compound>
CS(=O)(=O)c1ccc([C@@H](O)[C@@H](CO)NC(=O)C(Cl)Cl)cc1 [THIAMPHENICOL]

>  <MONOCYTE, %>
1

$$$$
>  <Compound>
Cn1c(=O)c2[nH]cnc2n(C)c1=O.O [THEOPHYLLINE]

>  <MONOCYTE, %>
0.83

$$$$
>  <Compound>
Cc1ccc(NC(=O)c2ccc(CN3CCN(C)CC3)cc2)cc1Nc1nccc(-c2cccnc2)n1 [IMATINIB]

>  <MONOCYTE, %>
1

$$$$
>  <Compound>
NNc1nncc2ccccc12 [HYDRALAZINE]

>  <MONOCYTE, %>
1.17

$$$$
